biological target: T1, TBD-22 (HC D109A); experiment: competition ELISA, peptide vs Fab binding to captured biotin-TROP2
T1 construct: Fab; also called HC D109A mutant
T1 sequence (VH, as listed by the source, chain 1 of 2): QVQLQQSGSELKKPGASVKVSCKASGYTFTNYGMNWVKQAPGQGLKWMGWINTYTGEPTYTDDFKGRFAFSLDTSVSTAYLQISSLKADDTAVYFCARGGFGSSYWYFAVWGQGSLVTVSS
T1 sequence (VL, as listed by the source, chain 2 of 2): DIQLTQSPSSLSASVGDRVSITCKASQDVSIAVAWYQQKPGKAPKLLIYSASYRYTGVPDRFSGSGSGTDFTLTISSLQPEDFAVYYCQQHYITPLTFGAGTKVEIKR
Where no end group is shown, it is not given here.
Reported property: log10(IC50) (log10 of the value in nM)
Heads up, the numbers here are log10 of IC50 in nM units.

# log10(IC50) lookup, item IDFCAMYHWPICDT (cysteine pairing not given here; also: biotinylated, site not given here) [Peptide-42]
1.78

# log10(IC50) lookup, item VDFCKIYSWPVCHQ (cysteine pairing not given here; also: biotinylated (site not given here)) [Peptide-25]
2.46

# log10(IC50) lookup, item IDFCMLYNWPICAG (cysteine pairing not given here; also: biotinylated, site not given here) [Peptide-3]
2.08

# log10(IC50) lookup, item EDFCYWYQWPICSD (cysteine pairing not given here; also: biotinylated, site not given here) [Peptide-35]
2.94

# log10(IC50) lookup, item IDFCAVYKWPVCQV (cysteine pairing not given here; also: biotinylated, site not given here) [Peptide-62]
1.90

# log10(IC50) lookup, item PDFCYMYGWPICDS (cysteine pairing not given here; also: biotinylated, site not given here) [Peptide-32]
2.52

# log10(IC50) lookup, item VDFCYLYNWPVCSK (cysteine pairing not given here; also: biotinylated, site not given here) [Peptide-37]
2.57

# log10(IC50) lookup, item VDFCALYHWPICYQ (cysteine pairing not given here; also: biotinylated, site not given here) [Peptide-43]
1.70
